Cited source: patent US20230145793A1

Target: A2B receptor (Homo sapiens)
Construct: host or cells: CHO-K1 (co-expressing Gα15)
Sequence (P29275 whole entry): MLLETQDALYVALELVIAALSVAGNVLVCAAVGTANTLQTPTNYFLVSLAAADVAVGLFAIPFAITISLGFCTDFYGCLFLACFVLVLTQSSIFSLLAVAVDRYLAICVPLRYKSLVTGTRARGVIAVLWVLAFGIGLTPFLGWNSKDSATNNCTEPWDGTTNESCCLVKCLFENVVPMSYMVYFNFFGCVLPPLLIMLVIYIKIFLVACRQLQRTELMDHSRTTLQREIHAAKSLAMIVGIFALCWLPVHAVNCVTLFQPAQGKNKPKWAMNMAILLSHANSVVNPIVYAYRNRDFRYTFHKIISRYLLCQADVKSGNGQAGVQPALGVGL
Assay: Test 1: inhibitory activity to the A2B receptor, cAMP HTRF in CHO-K1/ADORA2B/Gα15 cells, NECA 10 nM
Format: cell-based
Endpoint label: IC50 (µM)

Below are worked cases with known answers.
Compound string	IC50 [µM]
Cc1c(C#N)cccc1-c1nc(N)c(Cl)c(-c2cn(Cc3ccn(C)n3)nn2)n1	0.001
Cc1c(C#N)cccc1-c1nc(N)c(F)c(-c2cn(Cc3ccn(C4CC4)n3)nn2)n1	0.001
Cc1c(C#N)cccc1-c1nc(N)c(Cl)c(-c2cn(Cc3cccc(S(C)(=O)=O)c3)nn2)n1	0.024
Cc1c(C#N)cccc1-c1nc(N)c(F)c(-c2cn(Cc3cccc(C(C)(C)O)n3)nn2)n1	0.003
Cc1c(C#N)cccc1-c1nc(N)c(F)c(-c2cn(Cc3ccn(C4COC4)n3)nn2)n1	0.008
Cc1c(C#N)cccc1-c1nc(N)c(F)c(-c2cn(Cc3cc(C4CC4)n(C)n3)nn2)n1	0.005
Cc1c(C#N)cccc1-c1nc(N)c(Cl)c(-c2cn(Cc3ccn(C4CC4)n3)nn2)n1	0.004
Cc1c(C#N)cccc1-c1nc(N)c(Cl)c(-c2cn(Cc3cccn(C(C)C)c3=O)nn2)n1	0.003

a: Cc1c(C#N)cccc1-c1nc(N)nc(-c2cn(Cc3ccn(C)n3)nn2)c1F
b: Cc1c(C#N)cccc1-c1nc(N)c(Cl)c(-c2cn(Cc3cc(C(C)(C)O)n(C)n3)nn2)n1
Choose between a and b : whose measured IC50 value is numerically larger? I would appreciate it if you answered with the label of your choice.
a
(a: 0.049 µM, b: 0.001 µM)
